Biological target: native HvExoI (Hordeum vulgare)
Test: Inhibition kinetics (Ki) with 4-nitrophenyl β-D-glucopyranoside substrate
Type: biochemical, barley (Hordeum vulgare)
Details: calculated from Ki, native HvExoI
Description: Ki values of deoxy-glucose and alkyl β-D-glucoside derivatives, and G2SG-OMe with native HvExoI were derived from hydrolytic rates. Enzyme inactivation was monitored at 30 °C by incubating […] of the enzyme in 100 mM sodium acetate buffer, pH 5.25, containing 0.8–6.6 mM 4NPGlc as a substrate, 160 μg/ml BSA, and 3dGlc, 4dGlc, octyl-O-Glc, octyl-S-Glc and G2SG-OMe. Each inhibitor was tested at six concentrations at 0.4–3 times the Ki values in duplicate. […]
Reported Endpoint: ΔG
Returns: string containing the numeric result and its unit.

[
  {
    "Molecule": "CCCCCCCCO[C@@H]1O[C@H](CO)[C@@H](O)[C@H](O)[C@H]1O [Octyl-O-Glc, n-octyl β-D-glucopyranoside]",
    "Meas Value": "-5.4 kcal/mol"
  },
  {
    "Molecule": "CCCCCCCCS[C@@H]1O[C@H](CO)[C@@H](O)[C@H](O)[C@H]1O [Octyl-S-Glc, n-octyl 1-thio-β-D-glucopyranoside]",
    "Meas Value": "-4.11 kcal/mol"
  },
  {
    "Molecule": "O=C[C@H](O)C[C@H](O)[C@H](O)CO",
    "Meas Value": "-2.8 kcal/mol"
  },
  {
    "Molecule": "O=C[C@H](O)[C@@H](O)C[C@H](O)CO",
    "Meas Value": "-2.82 kcal/mol"
  }
]

We now examine a further molecule.
The molecule `CO[C@@H]1O[C@H](CO)[C@@H](O)[C@H](O)[C@H]1S[C@@H]1O[C@H](CO)[C@@H](O)[C@H](O)[C@H]1O` showed ΔG equal to -3.61 kcal/mol

====

Target: recombinant HvExoI (Hordeum vulgare)
Assay: Steady-state affinity binding by Surface Plasmon Resonance
Set-up: species or system barley (Hordeum vulgare)
Reported Endpoint: pKd
Numbers only, as −log10 of the molar value.

Tested on recombinant HvExoI (Hordeum vulgare), the item OC[C@H]1OC(O)[C@H](O)[C@@H](O)[C@@H]1O (stereo partly shown) showed pKd equal to 3.80

====

Target: recombinant HvExoI (Hordeum vulgare, UniProt Q9XEI3)
Sequence (Q9XEI3 entry or part of it): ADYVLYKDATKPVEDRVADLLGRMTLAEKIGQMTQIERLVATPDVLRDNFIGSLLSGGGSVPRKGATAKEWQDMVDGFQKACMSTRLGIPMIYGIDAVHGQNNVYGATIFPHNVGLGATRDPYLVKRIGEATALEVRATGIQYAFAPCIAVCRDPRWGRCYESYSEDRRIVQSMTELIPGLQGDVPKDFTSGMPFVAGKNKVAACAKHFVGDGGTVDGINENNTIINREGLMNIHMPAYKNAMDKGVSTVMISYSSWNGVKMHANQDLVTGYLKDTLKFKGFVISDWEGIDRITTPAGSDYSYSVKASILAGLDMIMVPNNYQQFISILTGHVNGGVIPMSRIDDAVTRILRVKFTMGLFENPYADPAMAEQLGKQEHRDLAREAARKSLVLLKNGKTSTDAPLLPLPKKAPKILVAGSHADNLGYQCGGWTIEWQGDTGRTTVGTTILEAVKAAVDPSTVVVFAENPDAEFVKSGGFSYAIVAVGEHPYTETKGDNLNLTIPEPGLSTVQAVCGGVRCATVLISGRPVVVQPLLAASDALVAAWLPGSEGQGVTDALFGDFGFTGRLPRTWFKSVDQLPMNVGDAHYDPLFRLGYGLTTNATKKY
Assay: Steady-state affinity binding by Surface Plasmon Resonance
Parameters: species or system barley (Hordeum vulgare)
Details: steady-state affinity, Surface Plasmon Resonance, recombinant HvExoI, 25 °C; read-out: KD
Description: Interaction between recombinant HvExoI and analytes Glc (molecular mass 180.2 g), G6SG-OMe (372.4 g) and PEG (n = 5–10); (380–420 g) were performed using Surface Plasmon Resonance (SPR) at 25 °C using the Biacore X100 V2.0.1 instrument (GE Healthcare, USA) equipped with the plus package. Purified recombinant HvExoI at 99% homogeneity (detected by SDS-PAGE) was covalently attached to a CM5 chip (GE Healthcare) in 10 mM sodium acetate buffer, pH 5.0. […]
Reported Endpoint: Kd (µM)
Numbers only, in µM.

Reported Kd for `CO[C@@H]1O[C@H](CS[C@@H]2O[C@H](CO)[C@@H](O)[C@H](O)[C@H]2O)[C@@H](O)[C@H](O)[C@H]1O` was 8

====

Target: native HvExoI (Hordeum vulgare, UniProt Q9XEI3)
Sequence (Q9XEI3 entry or part of it): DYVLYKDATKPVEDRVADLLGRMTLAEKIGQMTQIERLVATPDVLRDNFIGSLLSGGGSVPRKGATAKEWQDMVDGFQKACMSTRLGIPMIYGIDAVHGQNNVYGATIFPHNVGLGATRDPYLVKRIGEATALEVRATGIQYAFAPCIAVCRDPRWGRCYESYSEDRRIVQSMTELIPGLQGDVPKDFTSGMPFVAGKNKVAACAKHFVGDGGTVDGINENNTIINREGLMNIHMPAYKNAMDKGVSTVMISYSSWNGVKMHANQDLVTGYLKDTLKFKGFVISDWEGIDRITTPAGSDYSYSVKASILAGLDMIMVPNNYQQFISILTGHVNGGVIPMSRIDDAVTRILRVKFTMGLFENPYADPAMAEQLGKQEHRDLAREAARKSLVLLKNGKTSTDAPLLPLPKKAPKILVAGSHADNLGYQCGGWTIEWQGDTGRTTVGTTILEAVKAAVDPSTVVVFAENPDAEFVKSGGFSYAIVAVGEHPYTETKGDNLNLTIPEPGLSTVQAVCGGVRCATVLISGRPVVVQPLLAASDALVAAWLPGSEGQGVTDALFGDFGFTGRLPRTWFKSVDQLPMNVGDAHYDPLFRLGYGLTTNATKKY
Reported Endpoint: pKi
One number for each entry, as −log10 of the molar value.

Examples with answers:
[
  {
    "Molecule": "O=C[C@H](O)[C@@H](O)C[C@H](O)CO",
    "Measured Target": "native HvExoI (Hordeum vulgare, UniProt Q9XEI3)",
    "pKi": 2.03
  },
  {
    "Molecule": "CCCCCCCCO[C@@H]1O[C@H](CO)[C@@H](O)[C@H](O)[C@H]1O [Octyl-O-Glc, n-octyl β-D-glucopyranoside]",
    "Measured Target": "native HvExoI (Hordeum vulgare, UniProt Q9XEI3)",
    "pKi": 3.89
  },
  {
    "Molecule": "CO[C@@H]1O[C@H](CO)[C@@H](O)[C@H](O)[C@H]1S[C@@H]1O[C@H](CO)[C@@H](O)[C@H](O)[C@H]1O",
    "Measured Target": "native HvExoI (Hordeum vulgare, UniProt Q9XEI3)",
    "pKi": 2.59
  },
  {
    "Molecule": "CCCCCCCCS[C@@H]1O[C@H](CO)[C@@H](O)[C@H](O)[C@H]1O [Octyl-S-Glc, n-octyl 1-thio-β-D-glucopyranoside]",
    "Measured Target": "native HvExoI (Hordeum vulgare, UniProt Q9XEI3)",
    "pKi": 2.96
  }
]

Kindly consider the entry below.
Recorded result, `O=C[C@H](O)C[C@H](O)[C@H](O)CO` , pKi: 2.01
